Target desc: Potassium voltage-gated channel subfamily KQT member 1 (Homo sapiens)
Run description: KCNQ1 potassium channel potentiators, confirmation, FluxOR thallium flux, CHO cells, duplicates (AID 493007)
Reported conditions: KCNQ1 cell line, FluxOR thallium flux fluorescence, at 10 µM, % of reference activator effect, buffer zero
Active and inactive are the calls of the source.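 Rule for the calls: active = potentiation averaged over duplicate wells exceeding buffer-only control mean by more than 3 SD; inactive = the rest.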
Possible outcomes: true (1) = active, false (0) = inactive

Molecule | Category
Fc1ccc2nc(Nc3nc4c(F)cc(F)cc4s3)sc2c1 | true (1)
COc1ccc(CNC(=O)c2cc3c(=O)n4ccccc4nc3n(CC3CCCO3)c2=N)cc1 (stereo unspecified) | false (0)
COCCOC(=O)/C(=C/c1ccc(OC(=O)c2ccccc2)cc1)C(C)=O | false (0)
COc1ccccc1C(=O)NNC(=O)C(=O)Nc1cccc(Cl)c1C | true (1)
Fc1cccc(/C=N/NC(=S)Nc2ccccc2Cl)c1 | true (1)
COc1ccc2c(c1)c(=O)c(C(=O)O)c(-c1ccc3c(c1)OCO3)n2C | false (0)

====

Run description: thallium flux activation in parental CHO cells, counter-screen for KCNQ1 potentiator project (AID 493006);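 for activation: fluorescence ratio of max minus min over baseline after K+ and Tl+ depolarization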
Reported conditions: parental CHO-K1 cells, FluxOR thallium flux, at 10 µM
Active and inactive are the calls of the source.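 Rule for the calls: active = duplicate-averaged activation above buffer control mean plus 5 SD of those controls; inactive = the rest.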
Possible outcomes: T = active, F = inactive

Input smiles | Category
COc1ccc(Nc2nc(-c3sc(C)nc3C)cs2)c(OC)c1 | F
CCc1ccc(NC(=O)C(=O)NNC(=O)c2cccc(OC)c2)cc1 | T
CCOC(=S)NC(=O)c1sc2ccccc2c1Cl | T
O=C(/C=C/c1ccccc1)C1C(=O)c2ccccc2C1=O | F
O=C(NN=C1c2ccccc2-c2ccccc21)c1cccc(Br)c1 | T
CCCCn1c(SCC(N)=O)nc2ccc(N3CCOCC3)cc2c1=O | F

====

Target desc: Potassium voltage-gated channel subfamily E member 1 (Homo sapiens) + Potassium voltage-gated channel subfamily KQT member 1 (Homo sapiens) (UniProt P15382+P51787)
Sequence (P51787 whole entry, looked up): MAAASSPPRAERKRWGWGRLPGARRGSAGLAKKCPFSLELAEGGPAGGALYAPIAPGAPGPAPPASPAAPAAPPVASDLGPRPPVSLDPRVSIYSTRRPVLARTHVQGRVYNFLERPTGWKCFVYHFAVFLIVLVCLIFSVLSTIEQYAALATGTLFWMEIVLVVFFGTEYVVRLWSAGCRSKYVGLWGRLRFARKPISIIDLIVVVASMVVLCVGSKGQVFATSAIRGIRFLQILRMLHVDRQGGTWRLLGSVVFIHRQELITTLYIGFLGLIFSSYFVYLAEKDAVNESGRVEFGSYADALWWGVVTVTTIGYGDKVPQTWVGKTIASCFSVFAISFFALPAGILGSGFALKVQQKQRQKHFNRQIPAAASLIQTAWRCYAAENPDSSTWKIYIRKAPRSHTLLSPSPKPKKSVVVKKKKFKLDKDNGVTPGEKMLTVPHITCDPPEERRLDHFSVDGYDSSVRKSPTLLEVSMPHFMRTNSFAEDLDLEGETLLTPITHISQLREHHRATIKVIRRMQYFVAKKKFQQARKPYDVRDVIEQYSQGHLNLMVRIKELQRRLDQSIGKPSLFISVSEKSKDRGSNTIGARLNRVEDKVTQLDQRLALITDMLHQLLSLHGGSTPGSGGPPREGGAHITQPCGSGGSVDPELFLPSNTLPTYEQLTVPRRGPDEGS
Run description: KCNQ1/KCNE1 channel inhibition, selectivity assay for KCNQ1 inhibitor project, CHO-K1 cells, thallium flux, FluxOR (AID 652147);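 for inhibition: 0% = buffer only wells and 100% = XE-991 inhibitor control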
Reported conditions: FluxOR thallium flux fluorescence, at 10 µM
Some of the results follow. Active and inactive are the calls of the source.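 Rule for the calls: active = mean percent inhibition of duplicate wells above the buffer-only control mean plus 3 SD of those controls; inactive = the rest.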
Possible outcomes: y for active, n for inactive

Compound | Category
Cn1nccc1C(=O)NC1CCCc2c1cnn2-c1ccc(F)cc1F (stereo unspecified) | n
CCCC(=O)N1CCN(c2nnc(-c3ccc(C)cc3)c3ccccc23)CC1 | y
CC(C)OCCCNc1ncnc2c1[nH]c1ccc(F)cc12 | n
CSc1nccc(NC(=O)c2ccc(C(C)(C)C)cc2)n1 | y
Cc1cccc(CSc2ccc(-c3cccs3)nn2)c1 | y
CCOc1ccc(CN2CCN(Cc3c[nH]c4ccccc34)CC2)cc1 | y
COc1ccc(-c2csc3ncnc(N4CCN(S(=O)(=O)c5cccc(F)c5)CC4)c23)cc1 | y
CCOC(=O)c1cnc(SC)nc1Sc1ccc(Cl)cc1Cl | y
Fc1cc(Br)ccc1NC(=S)Nc1cccnc1 | n
Cc1ccc(-c2noc(CC(c3ccccc3)c3ccccc3)n2)cc1 | y
CNC(=O)c1ccsc1NC(=O)c1ccc(S(=O)(=O)N2CCc3ccccc32)cc1 | y
Cc1ccccc1C(=O)OC1OC(=O)C(Cl)=C1Nc1ccccc1 (stereo unspecified) | y
COc1ccc(S(=O)(=O)/N=C2\C=C(NS(=O)(=O)c3ccccc3)C(=O)c3ccccc32)cc1 | n
FC(F)Oc1ccc(NC(=S)NCc2ccco2)cc1Cl | y
CCOC(=O)c1ccc(NC(=O)Cn2cnc3cc(C)c(C)cc32)cc1 | y
CCc1noc(C)c1C(=O)Oc1ccc(N(C)S(=O)(=O)c2ccc(C)c(C)c2)cc1 | y
C=CCSc1nsc(NC(=O)Nc2cccc(C(C)=O)c2)n1 | y
Cc1cccc(-c2nc3ccc(C(=O)NCCN4CCN(C)CC4)cc3nc2-c2cccc(C)c2)c1 | y
CCC(=C/c1sc2ccc3ccccc3c2[n+]1C)/C=C1\Sc2ccc3ccccc3c2N1C | y
S=C(Nc1cccc(Cl)c1)Nc1ccc2c(c1)OCCO2 | y
c1ccc2c(c1)C(=NC1CCCCC1)NC2=NC1CCCCC1 | n

====

Target desc: Potassium voltage-gated channel subfamily KQT member 2 (Rattus norvegicus)
Run description: rat KCNQ2 channel potentiation, selectivity assay for KCNQ1 potentiator project, KCNQ2-CHO-K1 cells (AID 493009);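 note: assay conditions were tuned for KCNQ1 rather than KCNQ2 modulators; signal is max minus min fluorescence divided by baseline after thallium stimulus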
Reported conditions: FluxOR thallium flux fluorescence, at 10 µM, scaled: buffer 0, activator control 100
Calls of active or inactive are those of the source.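 Rule for the calls: active = mean duplicate potentiation above the buffer control mean plus 5 SD of buffer wells; inactive = the rest.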
Possible outcomes: active, inactive

Compound | Target desc | Category
C=CCn1c(N)c(C(=O)Nc2ccc(C)cc2)sc1=S | Potassium voltage-gated channel subfamily KQT member 2 (Rattus norvegicus) | inactive
Cc1cccc(/C=C/C(=O)c2cc(Br)ccc(=O)c2O)c1 | Potassium voltage-gated channel subfamily KQT member 2 (Rattus norvegicus) | active
CC1Oc2ccccc2OC1(O)c1ccccn1 (configuration not stated) | Potassium voltage-gated channel subfamily KQT member 2 (Rattus norvegicus) | active
Cc1cc(C)nc(N(C#N)CC(=O)c2ccccc2)n1 | Potassium voltage-gated channel subfamily KQT member 2 (Rattus norvegicus) | inactive
COc1ccc(OC)c(S(=O)(=O)Nc2ccc3c(c2)N(C(C)=O)CCC3)c1 | Potassium voltage-gated channel subfamily KQT member 2 (Rattus norvegicus) | inactive
Cc1ccsc1/C=N/Nc1nc2ccccc2s1 | Potassium voltage-gated channel subfamily KQT member 2 (Rattus norvegicus) | inactive
COc1cc(/C=N/Nc2snc(SC)c2C#N)ccc1O | Potassium voltage-gated channel subfamily KQT member 2 (Rattus norvegicus) | inactive
COc1cc(/C=N/Nc2nc(N3CCCC3)nc(N3CCCC3)n2)ccc1OCc1ccccc1F | Potassium voltage-gated channel subfamily KQT member 2 (Rattus norvegicus) | inactive
COc1ccc(/C=C2\SC(=O)NC2=S)cc1OC | Potassium voltage-gated channel subfamily KQT member 2 (Rattus norvegicus) | active
CC(C)(C)C(=O)NC(=S)NNC(=O)C(c1ccccc1)c1ccccc1 | Potassium voltage-gated channel subfamily KQT member 2 (Rattus norvegicus) | inactive
O=C(Nc1ccc(N2CCCC(O)C2)cc1)c1snc2c(=O)[nH]cnc12 (configuration not stated) | Potassium voltage-gated channel subfamily KQT member 2 (Rattus norvegicus) | inactive
CCOCCc1c(O)nc(SC)[nH]c1=O | Potassium voltage-gated channel subfamily KQT member 2 (Rattus norvegicus) | inactive

====

Target desc: Short transient receptor potential channel 6 (Mus musculus)
Run description: activation of mouse TRPC6 channel, confirmation, selectivity assay for TRPC4 activator project, cell-based, HEK293, membrane potential dye, duplicate (AID 434950);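 for activation: 0% = buffer only wells and 100% = acetylcholine maximal-effect wells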
Reported conditions: HEK293 TRPC6, membrane potential fluorescence, at 10 µM
The source made the active and inactive calls.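 Rule for the calls: active = membrane potential signal rise above negative control mean plus 3 SD in both duplicates, also active in the earlier TRPC4 screen; inactive = the rest.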
Possible outcomes: active, inactive

Compound | Category
CCN(CC)CCSc1nc2ccc(OC)cc2[nH]1 | inactive
Cc1ccccc1Nc1nc(NCc2ccco2)c2ccccc2n1 | inactive
CCOC(=O)C1(CCOc2ccccc2)CCN(Cc2ccc(NC(C)=O)cc2)CC1 | active
CN(C)C(CNC(=O)c1ccc2ccccc2n1)c1ccccc1 (stereo unspecified) | active
O=C(NC(=S)NNC(=O)c1ccco1)c1ccc(Br)cc1 | active
COc1cccc(CC2(CO)CCCN(Cc3ccccc3-c3ccco3)C2)c1 (stereo unspecified) | active

====

Target desc: Potassium voltage-gated channel subfamily KQT member 1 (Homo sapiens)
Run description: KCNQ1 potassium channel potentiators, confirmation, FluxOR thallium flux, CHO cells, duplicates (AID 493007)
Reported conditions: KCNQ1 cell line, FluxOR thallium flux fluorescence, at 10 µM, % of reference activator effect, buffer zero
Active and inactive are the calls of the source.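 Rule for the calls: active = potentiation averaged over duplicate wells exceeding buffer-only control mean by more than 3 SD; inactive = the rest.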
Possible outcomes: active, inactive

Compound | Category
CC1CN(c2nc(-c3ccc(Br)cc3)nnc2-c2ccccc2)CC(C)N1 (stereo unspecified) | inactive
CCCn1nnnc1SCC(=O)c1ccc2c(c1)OCCO2 | inactive
CSc1cccc(NC(=O)CN2C(=O)c3ccccc3S2(=O)=O)c1 | inactive
O=c1c2c(-c3ccco3)csc2nc(SCc2cn3cccnc3n2)n1-c1ccccc1 | inactive
Cc1ccc(O)c(C(=O)CC(=O)c2ccc(Cl)cc2)c1 | inactive
O=C(NNC(=S)NC(=O)c1sc2ccccc2c1Cl)c1ccc(Cl)cc1 | active

====

Target desc: Potassium voltage-gated channel subfamily KQT member 2 (Rattus norvegicus)
Run description: rat KCNQ2 channel potentiation, selectivity assay for KCNQ1 potentiator project, KCNQ2-CHO-K1 cells (AID 493009);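 note: assay conditions were tuned for KCNQ1 rather than KCNQ2 modulators; signal is max minus min fluorescence divided by baseline after thallium stimulus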
Reported conditions: FluxOR thallium flux fluorescence, at 10 µM, scaled: buffer 0, activator control 100
Active and inactive are the calls of the source.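 Rule for the calls: active = mean duplicate potentiation above the buffer control mean plus 5 SD of buffer wells; inactive = the rest.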
Possible outcomes: yes = active, no = inactive

Compound | Target desc | Category
Cc1c(CN2CCN(C)C(CCO)C2)[nH]c2c(Cl)cccc12 (stereo not drawn) | Potassium voltage-gated channel subfamily KQT member 2 (Rattus norvegicus) | no
Cc1ccc(C)c(NC(=S)NNC(=O)c2csc3c2CCC(C)C3)c1 (stereo not drawn) | Potassium voltage-gated channel subfamily KQT member 2 (Rattus norvegicus) | yes
O=C(COc1ccccc1)NC(=S)N1CCc2ccccc21 | Potassium voltage-gated channel subfamily KQT member 2 (Rattus norvegicus) | no
CCOC(=O)Cn1c(C(=O)OCC)cc2sccc21 | Potassium voltage-gated channel subfamily KQT member 2 (Rattus norvegicus) | no
CCC(C)n1c(=S)[nH]c2c(sc3ccc([N+](=O)[O-])cc32)c1=O (stereo not drawn) | Potassium voltage-gated channel subfamily KQT member 2 (Rattus norvegicus) | yes
FC(F)(F)c1cnc2c(c1)[nH]c(=S)n2-c1ccc(Cl)cc1 | Potassium voltage-gated channel subfamily KQT member 2 (Rattus norvegicus) | yes
Oc1ccc(CN2CCCCC2)c2cccnc12 | Potassium voltage-gated channel subfamily KQT member 2 (Rattus norvegicus) | yes
O=C(Nc1ccccc1Br)c1ccccc1-c1ccccc1 | Potassium voltage-gated channel subfamily KQT member 2 (Rattus norvegicus) | no
Cc1sc(NC(=O)CS(=O)(=O)c2ccccc2)c(C#N)c1C | Potassium voltage-gated channel subfamily KQT member 2 (Rattus norvegicus) | no
Cc1cccc(NC(=O)C(=O)NNC(=O)c2ccc(C(C)(C)C)cc2)c1 | Potassium voltage-gated channel subfamily KQT member 2 (Rattus norvegicus) | yes
O=C(NC(=S)Nc1cccc(C(F)(F)F)c1)c1csnn1 | Potassium voltage-gated channel subfamily KQT member 2 (Rattus norvegicus) | yes
Oc1c(Cl)cc(Cl)cc1C=Nc1ccc2c(c1)OCCO2 | Potassium voltage-gated channel subfamily KQT member 2 (Rattus norvegicus) | no
O=C(CN1CCCC1)Nc1ccc2c(c1)CCC2 | Potassium voltage-gated channel subfamily KQT member 2 (Rattus norvegicus) | no
O=C(NC(=S)Nc1ccccc1N1CCCC1)c1ccc(-c2cccc([N+](=O)[O-])c2)o1 | Potassium voltage-gated channel subfamily KQT member 2 (Rattus norvegicus) | no
C=CCSc1nc2sc3c(c2c(=O)n1CC)CCc1ccccc1-3 | Potassium voltage-gated channel subfamily KQT member 2 (Rattus norvegicus) | yes
C/C(=N\NC(=S)Nc1ccc(C)cc1)c1cc2ccccc2o1 | Potassium voltage-gated channel subfamily KQT member 2 (Rattus norvegicus) | yes
Cc1cccn2c(=O)nc(SCC(=O)N3N=C(c4cccs4)CC3c3ccc(F)cc3)nc12 (stereo not drawn) | Potassium voltage-gated channel subfamily KQT member 2 (Rattus norvegicus) | no
COc1ccc(C(=O)c2ccc(OC)c(N)c2)cc1N | Potassium voltage-gated channel subfamily KQT member 2 (Rattus norvegicus) | yes
CCCCCCCCCCC[N+](C)(C)CC/C=C1/c2ccccc2Sc2ccc(Cl)cc21 | Potassium voltage-gated channel subfamily KQT member 2 (Rattus norvegicus) | no
Cc1[nH][nH]c(=O)c1C(c1ccc(-c2ccc(F)cc2)o1)c1c(C)[nH][nH]c1=O | Potassium voltage-gated channel subfamily KQT member 2 (Rattus norvegicus) | no
CN(C(=O)c1cc(COc2c(F)cccc2F)on1)C1CCOC1 (stereo not drawn) | Potassium voltage-gated channel subfamily KQT member 2 (Rattus norvegicus) | no
O=c1c2cc(NC(=S)NCCCN3CCC(Cc4ccccc4)CC3)ccc2nc2n1CCCCC2 | Potassium voltage-gated channel subfamily KQT member 2 (Rattus norvegicus) | no
Cc1ccc2cccnc2c1NC(=S)NC(=O)c1ccccc1 | Potassium voltage-gated channel subfamily KQT member 2 (Rattus norvegicus) | no

Just for reference, PubChem BioAssay is where these values come from.
